For each of the molecules below, state its TGI.
system: BT-549 breast; assay: NCI tumour cell line growth inhibition, 48 h
A number alone suffices; assume µM.

# lookup: TGI of "COc1cc2nc3cc([N+](=O)[O-])ccc3c(NCCCNCC(C)(C)O)c2cc1OC"
3.32

Same again, this time with "N[C@@H]1CCCN(c2c(/C=C3\SC(=O)NC3=O)cccc2-c2ccccc2)C1"
24.1

Another molecule to look at: "C/C(=C\c1ccc(Cl)c(Cl)c1)[N+](=O)[O-]"
20.1

###

tested on: SR leukemia; assay: NCI tumour cell line growth inhibition, 48 h
Can you tell me log10 of TGI for the items I'm about to list?
Scale: log10; quantity: TGI; unit before log: µM

Quick one: log10 of TGI of CCCCCCCCCCCCOC1C(CNC(=O)C2OC3OC(C)(C)OC3C2NC(=O)CN2CCCCCC2)OC2OC(C)(C)OC21 (stereo not given) ?
0.69

Let us now turn to "Cc1c(C)c2c(c(N)c1C#N)C(=O)N(CCN1CCNCC1)C2=O"
1.98

And then "O=C(Nc1ccccc1F)c1cc2ccc(O)cc2oc1=Nc1cccc(C(F)(F)F)c1" , what is it?
1.25

And the next one, CC1=C[S+](c2ccccc2)c2cccc3cc4ccccc4c1c23 (stereo not given) ?
0.33

Param item: "CSc1ccc(/C=C/c2ccnc3ccccc23)cc1"
1.52

###

test system: HL-60(TB) leukemia; assay: NCI tumour cell line growth inhibition, 48 h; in the data active = GI50 below about 0.43 µM; inactive = the rest
Select the correct class. Options are y = active, n = inactive and nothing else.

Hey, what did the test say about "O=C1CCc2c(sc3[nH]c(=S)n(Cc4ccccc4)c(=O)c23)C1" ?
n

What do we get for "N#Cc1ccc(C(c2ccc(C#N)cc2)n2cncn2)cc1" ?
n

Quick one: "CN(CCCl)c1ccc(/C=C/C2=[N+](C)c3ccccc3C2(C)C)cc1"
y

Can you check "CS(=O)(=O)CCNCc1ccc(-c2ccc3ncnc(Nc4ccc(OCc5ccccc5)c(Cl)c4)c3c2)o1" next?
n

Then what about the compound "O=C([O-])c1ccc(C(=O)[O-])cc1.O=C([O-])c1ccc(C(=O)[O-])cc1.[Mo+2].[Mo+2]" ?
n

How about "Cc1nc2n(c(=O)c1CCN1CCC(c3noc4cc(F)ccc34)CC1)CCCC2" ?
n

Same question for "COc1ccc(Cn2cc3c(c2-c2cc(OC)c(OC)c(OC)c2)CCc2cnoc2-3)cc1[N+](=O)[O-]" please.
y

Next: CCN1C(=O)N(c2ccccc2)C2NN=c3s/c(=C4\C(=O)N(C(C)C)c5ccccc54)c(=O)n3C21 (centres undefined)
n

Repeat with "COc1ccc(C(=O)COc2cccc(/C=C3\CSc4ccc(C)cc4C3=O)c2)cc1"
n

###

system: SK-MEL-28 melanoma; experiment: NCI tumour cell line growth inhibition, 48 h
recorded_endpoint: TGI

Would you kindly share the measured TGI for "COc1ccc(C(=O)c2cc3c(N)c(C(=O)Nc4cccc(Cl)c4C)sc3nc2C)cc1" ?
> 25 µM

Now the compound "CCOC(=O)/C=C1\c2ccccc2C(=O)N1CC(=O)OCC"
> 100 µM

Now this one: "COc1ccc(CNc2nc3c(NC(C)=O)cc(C(F)(F)F)cc3nc2-c2ccccc2)cc1OC"
> 100 µM

Another: CCCSC1=NC2C(N(CC)C(=O)N2CC)N1/N=C/C=C/c1ccccc1[N+](=O)[O-] (stereo not given)
> 100 µM

"CCS(=O)(=O)CCn1cnc2c1c(=O)n(C)c(=O)n2C" , same question.
> 100 µM

Another compound to look at: "C=CCN1C(=O)CS/C1=N/NC(=O)C(O)(c1ccccc1)c1ccccc1"
> 10 µM

Next compound: "C=C1CN(Cc2ccccc2)[C@@H]2CCCCC[C@H](C#N)[C@H]12"
> 100 µM

How about this compound: "Cc1c(C)c(S(=O)(=O)N(CCCN)OCCCN)c(C)c2c1OC(C)(C)C2"
> 100 µM

What about this compound? "O=C(/C=C/c1ccc(O)c(O)c1O)OCCc1ccccc1"
> 100 µM

Query CNC1C(O)C(OC2C(N)CC(N)C(OC3OC(C(C)O)C(O)C(O)C3N)C2O)OCC1(C)O (stereo not given) next
> 100 µM
